# Test system: p21 induction in HCT116 cells
# experimental.protocol: p21 induction in HCT116 cells
# Type: cell-based
# condition.info: Homo sapiens, HCT-116, 24 h, HCT116 cells, 24 h compound incubation; read-out: P21_EC50
pEC50: −log10 of the molar value.
property.label: pEC50

Example cases with answers are listed next.
[
  {
    "molecule": "CCc1c(N2CCN(C(=O)c3ncnc(C)c3O)CC2)c(=O)c2nc(C(C)(C)O)c(C)nc2n1CC(=O)Nc1ccc(C(F)(F)F)cc1Cl [I-22]",
    "pEC50": "< 5.30"
  },
  {
    "molecule": "CCc1c(C23CCN(C(=O)c4ncnc(C)c4O)CC2C3)c(=O)c2nc(N(C)C)cnc2n1CC(=O)Nc1ccc(C(F)(F)F)cc1Cl (stereo not drawn) [I-229]",
    "pEC50": "5.70 to 6.30"
  }
]

Req: For CCc1c(N2CCN(C(=O)c3ncnc(C)c3O)C3(CCC3)C2)c(=O)c2nc(N(C)C)cnc2n1CC(=O)Nc1ccc(C(F)(F)F)cc1Cl [I-216] , what is its reported pEC50?
Resp: < 5.30

Req: For CCc1c(N2CCN(C(=O)c3ncnc(C)c3O)CC2)c(=O)c2nc(CO)cnc2n1CC(=O)Nc1ccc(C(F)(F)F)cc1Cl [I-25] , what is its reported pEC50?
Resp: < 5.30

Req: For CCc1c(N2C[C@@H]3CC[C@H]2CN3C(=O)c2ncnc(C)c2O)c(=O)c2nc(N(C)C)cnc2n1CC(=O)Nc1ccc(C(F)(F)F)cc1Cl (single isomer, unassigned) [I-247] , what is its reported pEC50?
Resp: < 5.30

* * *

Property: EC50; scope: individual molecules
# Test system: p21 induction in HCT116 cells
# experimental.protocol: p21 induction in HCT116 cells
# Type: cell-based
# condition.info: Homo sapiens, HCT-116, 24 h, HCT116 cells, 24 h compound incubation; read-out: P21_EC50

[
  {
    "molecule": "CCc1c(N2CCN(C(=O)c3ncnc(C)c3O)CC2)c(=O)c2nc(C)cnc2n1CC(=O)Nc1ccc(C(F)(F)F)cc1Cl",
    "measured.on": "p21 induction in HCT116 cells",
    "EC50": "> 5000 nM"
  }
]

Req: For p21 induction in HCT116 cells, provide EC50 of CCc1c(N2CCN(C(=O)c3ncnc(C)c3O)CC2)c(=O)c2nc(N(C3CC3)C3CC3)cnc2n1CC(=O)Nc1ccc(C(F)(F)F)cc1Cl please.
Resp: 2000 to 5000 nM

Req: For p21 induction in HCT116 cells, provide EC50 of CCc1c(N2CCN(C(=O)c3c(OC)ncc(C)c3O)[C@H]3CCC[C@@H]32)c(=O)c2nc(N(C)C)cnc2n1CC(=O)Nc1ccc(C(F)(F)F)cc1Cl please.
Resp: < 500 nM

Req: For p21 induction in HCT116 cells, provide EC50 of CCc1c(N2CCN(C(=O)c3ncnc(C)c3O)[C@H]3CC[C@@H]32)c(=O)c2nc(N(C)C)cnc2n1CC(=O)Nc1ccc(C(F)(F)F)cc1Cl (single isomer, unassigned) please.
Resp: < 500 nM

Req: For p21 induction in HCT116 cells, provide EC50 of CCc1c(N2CC3CC2CN3C(=O)c2ncnc(C)c2O)c(=O)c2nc(N(C)C)cnc2n1CC(=O)Nc1ccc(C(F)(F)F)cc1Cl (stereo not drawn) please.
Resp: > 5000 nM

Req: For p21 induction in HCT116 cells, provide EC50 of CCc1c(N2CCN(C(=O)c3ncnc(C)c3O)CC2)c(=O)c2nc(C(F)F)c(C)nc2n1CC(=O)Nc1ccc(C(F)(F)F)cc1Cl please.
Resp: > 5000 nM
